% Cross-reactivity (CR) overview
- System: antiserum raised to Immunogen I
- test-method-notes: Competitive ELISA with IgG fraction of antiserum raised to Immunogen I (second bleed) and hapten 1-HRP detecting agent
- Type: binding, sheep
- test-conditions: Table 1; CR based on 100% for UR-144 N-pentanoic acid
Remember to quote the unit after the number.

Some compounds with known % Cross-reactivity (CR) results, for comparison:
QUERY: Reported % Cross-reactivity (CR), compound CC1(C)C(C(=O)c2c[nH]c3ccccc23)C1(C)C : ____
RESULT: 18.1%

QUERY: Reported % Cross-reactivity (CR), compound CC1(C)C(C(=O)c2cn(CCCCCO)c3ccccc23)C1(C)C : ____
RESULT: 109.2%

QUERY: Reported % Cross-reactivity (CR), compound CC1(C)C(C(=O)c2cn(CCCCCF)c3ccccc23)C1(C)C : ____
RESULT: 36.9%

QUERY: Reported % Cross-reactivity (CR), compound CC1(C)C(C(=O)c2cn(CCCCC(=O)O)c3ccccc23)C1(C)C : ____
RESULT: 100%

---
QUERY: Reported % Cross-reactivity (CR), compound CCCCCn1cc(C(=O)C2C(C)(C)C2(C)C)c2ccccc21 : ____
RESULT: 15.3%

Ref: patent US9079964B2
